Each record here notes measured IC50.
- TARGET OF ASSAY: Kv1.3 potassium channel (Homo sapiens)
- Construct: expressed in transfected cells
- Sequence (P22001 whole entry): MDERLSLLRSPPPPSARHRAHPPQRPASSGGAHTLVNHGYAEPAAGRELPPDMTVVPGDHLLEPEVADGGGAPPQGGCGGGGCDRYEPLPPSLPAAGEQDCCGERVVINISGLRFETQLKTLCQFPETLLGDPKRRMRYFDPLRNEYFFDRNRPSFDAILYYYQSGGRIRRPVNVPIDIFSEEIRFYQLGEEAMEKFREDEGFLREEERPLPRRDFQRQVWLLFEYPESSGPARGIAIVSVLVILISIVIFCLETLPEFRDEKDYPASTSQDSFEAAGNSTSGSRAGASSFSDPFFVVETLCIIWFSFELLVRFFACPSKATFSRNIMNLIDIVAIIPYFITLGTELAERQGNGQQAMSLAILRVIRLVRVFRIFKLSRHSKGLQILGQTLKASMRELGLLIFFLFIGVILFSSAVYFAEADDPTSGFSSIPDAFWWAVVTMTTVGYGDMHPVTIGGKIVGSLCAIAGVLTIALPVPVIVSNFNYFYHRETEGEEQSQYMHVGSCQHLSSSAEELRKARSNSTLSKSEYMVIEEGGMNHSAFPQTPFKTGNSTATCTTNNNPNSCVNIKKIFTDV
- METHOD DESCRIPTION: Kv1.3 potassium channel blocker activity, automated whole-cell patch clamp (Patchliner)
- Assay type: cell-based
- ASSAY SETUP: CHO-K1 cells stably expressing Kv1.3; 100 ms pulses from -90 mV to +40 mV, 0.1 Hz

molecule="O=C(CO)N1CC(=O)N2CC[C@H](c3c(O)ccc(Cl)c3Cl)C[C@@H]2C1 [Compound 48]" target_of_assay="Kv1.3 potassium channel (Homo sapiens)" reported_property=IC50 data_value="< 1000 nM"
molecule="O=C1[C@@H](CO)NC[C@@H]2C[C@H](c3c(O)ccc(Cl)c3Cl)CCN12 [Compound 57]" target_of_assay="Kv1.3 potassium channel (Homo sapiens)" reported_property=IC50 data_value="< 1000 nM"
molecule="O=C1C[C@H](O)C[C@@H]2C[C@H](c3c(O)ccc(Cl)c3Cl)CN12 (single isomer, unassigned; isomer 2) [Compound 62]" target_of_assay="Kv1.3 potassium channel (Homo sapiens)" reported_property=IC50 data_value="< 1000 nM"

Attention now turns to another entry.
The measured IC50 associated with CCC(=O)N1CC(=O)N2C[C@@H](c3c(O)ccc(Cl)c3Cl)C[C@H]2C1 [Compound 8] reads < 1000 nM
